Tested on: Rattus norvegicus
methodDescription: Antiallergic activity in anti-egg albumin homocytotropic antibody-sensitized Sprague-Dawley rat assessed as inhibition of passive cutaneous anaphylaxis reaction at 0.01 mg/kg, iv administered at the time of antigen egg albumin challenge
Type: functional
Assign rule met whenever inhibition in vivo at 0.01 mg/kg does not fall below 20%; assign rule not met whenever it does.

molecule: O=C(O)C(=O)Nc1cc(C(F)(F)F)cc(NC(=O)C(=O)O)c1Cl
assignedCategory: rule met

molecule: O=C(O)C(=O)Nc1cc(NC(=O)C(=O)O)c(Cl)cc1Cl
assignedCategory: rule not met

molecule: O=C(O)C(=O)Nc1cccc(NC(=O)C(=O)O)c1
assignedCategory: rule not met

molecule: N#Cc1cc(NC(=O)C(=O)O)cc(NC(=O)C(=O)O)c1
assignedCategory: rule met

molecule: CC(=O)c1cc(NC(=O)C(=O)O)c(Cl)c(NC(=O)C(=O)O)c1
assignedCategory: rule not met

molecule: NC(=O)c1cc(NC(=O)C(=O)O)c(Cl)c(NC(=O)C(=O)O)c1
assignedCategory: rule not met

molecule: O=C(O)C(=O)Nc1cc(-c2ccccc2)cc(NC(=O)C(=O)O)c1Cl
assignedCategory: rule met

molecule: CC(=O)Nc1cc(NC(=O)C(=O)O)cc(NC(=O)C(=O)O)c1
assignedCategory: rule not met

molecule: N#Cc1cc(NC(=O)C(=O)O)c(Cl)c(NC(=O)C(=O)O)c1 [LODOXAMIDE]
assignedCategory: rule met

====

Tested on: Rattus norvegicus
methodDescription: Antiallergic activity in anti-egg albumin homocytotropic antibody-sensitized Sprague-Dawley rat assessed as inhibition of passive cutaneous anaphylaxis reaction at 50 mg/kg, po administered 20 mins prior to antigen egg albumin challenge
Type: functional
Use 30% as the dividing line for inhibition in vivo at 50 mg/kg, with the line itself on the 1 (yes) side and lower values as 0 (no).

compound: CCOC(=O)C(=O)Nc1cc(C(C)=O)cc(NC(=O)C(=O)OCC)c1Cl
systemUnderTest: Rattus norvegicus
assignedCategory: 0 (no)
--
compound: CCOC(=O)C(=O)Nc1cc(C)cc(NC(=O)C(=O)OCC)c1Cl
systemUnderTest: Rattus norvegicus
assignedCategory: 0 (no)
--
compound: CCOC(=O)C(=O)Nc1cc(NC(=O)C(=O)OCC)c(Cl)c(-c2ccccc2)c1
systemUnderTest: Rattus norvegicus
assignedCategory: 0 (no)
--
compound: CCOC(=O)C(=O)Nc1cc(C#N)cc(NC(=O)C(=O)OCC)c1Cl [LODOXAMIDE ETHYL]
systemUnderTest: Rattus norvegicus
assignedCategory: 1 (yes)
--
compound: CCOC(=O)C(=O)Nc1cc(-c2ccccc2)cc(NC(=O)C(=O)OCC)c1Cl
systemUnderTest: Rattus norvegicus
assignedCategory: 0 (no)
--
compound: CCOC(=O)C(=O)Nc1cc(NC(=O)C(=O)OCC)cc([N+](=O)[O-])c1
systemUnderTest: Rattus norvegicus
assignedCategory: 0 (no)
--
compound: CCOC(=O)C(=O)Nc1cc(NC(=O)C(=O)OCC)c(Cl)cc1Cl
systemUnderTest: Rattus norvegicus
assignedCategory: 1 (yes)
--
compound: CCOC(=O)C(=O)Nc1c([N+](=O)[O-])cc([N+](=O)[O-])c(NC(=O)C(=O)OCC)c1Cl
systemUnderTest: Rattus norvegicus
assignedCategory: 0 (no)
--
compound: CCOC(=O)C(=O)Nc1cccc(NC(=O)C(=O)OCC)c1
systemUnderTest: Rattus norvegicus
assignedCategory: 1 (yes)
--
compound: CCOC(=O)C(=O)Nc1cc(NC(=O)C(=O)OCC)cc(OC)c1
systemUnderTest: Rattus norvegicus
assignedCategory: 0 (no)
--
compound: CCOC(=O)C(=O)Nc1cccc(NC(=O)C(=O)OCC)c1C(=O)OC
systemUnderTest: Rattus norvegicus
assignedCategory: 0 (no)
--
compound: CCOC(=O)C(=O)Nc1cc(NC(=O)C(=O)OCC)c([N+](=O)[O-])cc1[N+](=O)[O-]
systemUnderTest: Rattus norvegicus
assignedCategory: 0 (no)
--
compound: CCOC(=O)C(=O)Nc1cc(C(F)(F)F)cc(NC(=O)C(=O)OCC)c1C#N
systemUnderTest: Rattus norvegicus
assignedCategory: 0 (no)
--
compound: CCOC(=O)C(=O)Nc1cc(C(N)=O)cc(NC(=O)C(=O)OCC)c1Cl
systemUnderTest: Rattus norvegicus
assignedCategory: 1 (yes)
--
compound: CCOC(=O)C(=O)Nc1cc(C(F)(F)F)cc(NC(=O)C(=O)OCC)c1Cl
systemUnderTest: Rattus norvegicus
assignedCategory: 0 (no)
--
compound: CCOC(=O)C(=O)Nc1ccc(F)c(NC(=O)C(=O)OCC)c1
systemUnderTest: Rattus norvegicus
assignedCategory: 1 (yes)
--
compound: CCOC(=O)C(=O)Nc1cc(NC(C)=O)cc(NC(=O)C(=O)OCC)c1
systemUnderTest: Rattus norvegicus
assignedCategory: 0 (no)
--
compound: CCOC(=O)C(=O)Nc1ccc(OC)c(NC(=O)C(=O)OCC)c1
systemUnderTest: Rattus norvegicus
assignedCategory: 1 (yes)
--
compound: CCOC(=O)C(=O)Nc1cc(NC(=O)C(=O)OCC)cc(C(=O)O)c1
systemUnderTest: Rattus norvegicus
assignedCategory: 0 (no)
--
compound: CCOC(=O)C(=O)Nc1cc(C(=O)OC)c(Cl)c(NC(=O)C(=O)OCC)c1Cl
systemUnderTest: Rattus norvegicus
assignedCategory: 0 (no)
--
compound: CCOC(=O)C(=O)Nc1cccc(NC(=O)C(=O)OCC)c1C
systemUnderTest: Rattus norvegicus
assignedCategory: 1 (yes)

These measurements were taken from ChEMBL document CHEMBL3244076.
